molecular target: human glucokinase (GK) (Homo sapiens); construct: Full-length human hepatic GK (untagged) was expressed in BL21 STAR (DE3)pLysS cells; made in house; host or cells: E. coli BL21 STAR (DE3)pLysS; assay: Glucokinase tandem enzymatic assay; assay type: biochemical; conditions: 12 mM glucose; EC50 = concentration to achieve 50% of full activation
Sequence (P35557 1-466 isoform P35557-2): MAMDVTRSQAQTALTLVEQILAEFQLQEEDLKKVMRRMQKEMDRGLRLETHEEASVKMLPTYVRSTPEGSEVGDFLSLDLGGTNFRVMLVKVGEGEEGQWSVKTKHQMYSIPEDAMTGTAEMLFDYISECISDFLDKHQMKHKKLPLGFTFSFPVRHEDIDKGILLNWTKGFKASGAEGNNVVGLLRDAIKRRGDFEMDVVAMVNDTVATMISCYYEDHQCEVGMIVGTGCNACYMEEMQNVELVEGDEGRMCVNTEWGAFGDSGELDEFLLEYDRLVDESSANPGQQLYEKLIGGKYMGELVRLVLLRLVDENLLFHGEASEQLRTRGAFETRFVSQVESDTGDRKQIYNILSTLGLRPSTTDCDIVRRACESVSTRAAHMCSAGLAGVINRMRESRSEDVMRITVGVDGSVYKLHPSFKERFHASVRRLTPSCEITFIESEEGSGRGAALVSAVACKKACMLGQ
endpointLabel: EC50 (nM)
Give the value, in units of nM, as a plain number.

Param readout = EC50; param system = human glucokinase (GK) (Homo sapiens); param query = CCOP(=O)(Cn1ccc(NC(=O)c2cc(Oc3ccc(S(C)(=O)=O)cc3)cc(O[C@@H](C)COC)c2)n1)OCC ; response: value
65

Param readout = EC50; param system = human glucokinase (GK) (Homo sapiens); param query = CCOP(=O)(Cc1nc(NC(=O)c2cc(Oc3ccc(S(C)(=O)=O)cc3)cc(O[C@@H](C)COC)c2)sc1Br)OCC ; response: value
15

Param readout = EC50; param system = human glucokinase (GK) (Homo sapiens); param query = CCOP(=O)(Cc1csc(NC(=O)c2cc(OCCCS(C)(=O)=O)cc(O[C@@H](C)COC)c2)n1)OCC ; response: value
467

Param readout = EC50; param system = human glucokinase (GK) (Homo sapiens); param query = CCOP(=O)(Cc1csc(NC(=O)c2cc(O[C@@H](C)CO)cc(O[C@@H](C)Cc3ccccc3)c2)n1)OCC ; response: value
21

Param readout = EC50; param system = human glucokinase (GK) (Homo sapiens); param query = CCOP(=O)(Cc1csc(NC(=O)c2cc(OC(C)C)cc(OC(C)C)c2)n1)OCC ; response: value
178

Shifting focus to the compound that follows.
Param readout = EC50; param system = human glucokinase (GK) (Homo sapiens); param query = CCOP(=O)(Cc1csc(NC(=O)c2cc(Oc3ccc(S(C)(=O)=O)cc3)cc(O[C@@H](C)COC)c2)n1)OCC ; response: value
34

The origin of these recorded values is patent US7910747B2.
